- MEASUREMENT_TARGET: human CD3 (human, UniProt P07766 23-207; P04234 22-171; P09693 23-182)
- Sequence (P07766 23-207, chain 1 of 3): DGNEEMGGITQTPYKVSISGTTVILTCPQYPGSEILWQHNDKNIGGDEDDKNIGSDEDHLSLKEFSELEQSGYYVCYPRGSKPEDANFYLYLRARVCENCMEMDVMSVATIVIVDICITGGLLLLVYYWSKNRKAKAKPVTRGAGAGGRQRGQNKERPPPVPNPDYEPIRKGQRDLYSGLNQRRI
- Sequence (P04234 22-171, chain 2 of 3): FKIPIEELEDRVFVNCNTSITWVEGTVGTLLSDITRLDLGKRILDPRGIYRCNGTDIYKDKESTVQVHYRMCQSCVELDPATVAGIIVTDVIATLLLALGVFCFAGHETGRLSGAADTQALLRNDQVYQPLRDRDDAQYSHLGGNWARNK
- Sequence (P09693 23-182, chain 3 of 3): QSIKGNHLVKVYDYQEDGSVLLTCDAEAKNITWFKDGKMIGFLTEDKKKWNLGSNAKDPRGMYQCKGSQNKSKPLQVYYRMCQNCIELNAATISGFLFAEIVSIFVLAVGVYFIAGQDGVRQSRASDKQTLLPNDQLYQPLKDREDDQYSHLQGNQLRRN
- ASSAY_METHOD_TEXT: cell-based or functional assay
RECORDED_ENDPOINT: EC50_Fold change (Jurkat-NFAT-luciferase activation, normalized to ch40-C12-C10-E9)

BINDER	RESULT
hu40E9-L2H3-D56G.H (antibody, V domains shown) VH: EVQLVQSGAEVKKPGSSVKVSCKASGYTFSSYVIHWVRQAPGQGLEWMGYINPYNGVIKYNEKFKGRVTLTSDKSTSTAYMELSSLRSEDTAVYYCARDSYYSYDGFAYWGQGTLVTVSS VL: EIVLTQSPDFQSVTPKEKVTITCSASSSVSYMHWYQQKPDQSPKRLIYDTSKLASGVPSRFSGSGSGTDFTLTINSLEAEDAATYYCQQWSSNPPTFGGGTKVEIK	0.65 fold
hu40E9-L2H3-N55S.H (antibody, V domains shown) VH: EVQLVQSGAEVKKPGSSVKVSCKASGYTFSSYVIHWVRQAPGQGLEWMGYINPYSDVIKYNEKFKGRVTLTSDKSTSTAYMELSSLRSEDTAVYYCARDSYYSYDGFAYWGQGTLVTVSS VL: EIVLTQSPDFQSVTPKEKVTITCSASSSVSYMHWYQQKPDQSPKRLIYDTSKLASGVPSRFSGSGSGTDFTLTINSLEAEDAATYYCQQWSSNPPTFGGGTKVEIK	1.35 fold
hu40E9-L2H3-N93R.L (antibody, V domains shown) VH: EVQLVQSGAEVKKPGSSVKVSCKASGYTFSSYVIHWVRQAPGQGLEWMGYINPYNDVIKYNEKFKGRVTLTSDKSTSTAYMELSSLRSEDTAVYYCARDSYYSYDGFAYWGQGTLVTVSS VL: EIVLTQSPDFQSVTPKEKVTITCSASSSVSYMHWYQQKPDQSPKRLIYDTSKLASGVPSRFSGSGSGTDFTLTINSLEAEDAATYYCQQWSSRPPTFGGGTKVEIK	0.81 fold
